# Test system: Mycolicibacterium smegmatis
# assaySummary: Antimycobacterial activity against Mycobacterium smegmatis (SANK 75075)
# Assay type: functional
readoutKind: MIC (µg/mL)
Respond numerically; units are µg/mL and should not be typed.

CO[C@H]1[C@@H](O)[C@H](n2ccc(=O)[nH]c2=O)O[C@@H]1[C@@H](O[C@H]1OC(C(=O)Nc2ccc(C(F)(F)F)cc2)=C[C@H](O)[C@@H]1O)C(N)=O :: 12.5

As a next step, examine the compound that follows.
What value of MIC has been recorded for this entry: "COc1ccc(CCNC(=O)C2=C[C@H](O)[C@H](O)[C@@H](O[C@@H](C(N)=O)[C@H]3O[C@@H](n4ccc(=O)[nH]c4=O)[C@H](O)[C@@H]3OC)O2)cc1OC"
50

###

# System: Mycolicibacterium smegmatis
# assaySummary: Antimycobacterial activity against Mycobacterium smegmatis (SANK 75075)
# Format: functional
Mark each entry 1 if its MIC sits below 20 µg/mL, and -1 for all others.

CNC(=O)C1=C[C@H](O)[C@H](O)[C@@H](O[C@@H](C(N)=O)[C@H]2O[C@@H](n3ccc(=O)[nH]c3=O)[C@H](O)[C@@H]2OC)O1 :: -1
CO[C@H]1[C@@H](O)[C@H](n2ccc(=O)[nH]c2=O)O[C@@H]1[C@@H](O[C@H]1OC(C(=O)NCc2ccco2)=C[C@H](O)[C@@H]1O)C(N)=O :: -1
CO[C@H]1[C@@H](O)[C@H](n2ccc(=O)[nH]c2=O)O[C@@H]1[C@@H](O[C@H]1OC(C(=O)Nc2ccc(C(C)C)cc2)=C[C@H](O)[C@@H]1O)C(N)=O :: -1
CO[C@H]1[C@@H](O)[C@H](n2ccc(=O)[nH]c2=O)O[C@@H]1[C@@H](O[C@H]1OC(C(=O)Nc2cccc(F)c2F)=C[C@H](O)[C@@H]1O)C(N)=O :: 1
CO[C@H]1[C@@H](O)[C@H](n2ccc(=O)[nH]c2=O)O[C@@H]1[C@@H](O[C@H]1OC(C(=O)NCCc2cccs2)=C[C@H](O)[C@@H]1O)C(N)=O :: -1
CO[C@H]1[C@@H](O)[C@H](n2ccc(=O)[nH]c2=O)O[C@@H]1[C@@H](O[C@H]1OC(C(=O)NCc2ccc(C)cc2)=C[C@H](O)[C@@H]1O)C(N)=O :: -1
CO[C@H]1[C@@H](O)[C@H](n2ccc(=O)[nH]c2=O)O[C@@H]1[C@@H](O[C@H]1OC(C(=O)NCc2cccs2)=C[C@H](O)[C@@H]1O)C(N)=O :: -1
CCCc1ccc(NC(=O)C2=C[C@H](O)[C@H](O)[C@@H](O[C@@H](C(N)=O)[C@H]3O[C@@H](n4ccc(=O)[nH]c4=O)[C@H](O)[C@@H]3OC)O2)cc1 :: 1
CO[C@H]1[C@@H](O)[C@H](n2ccc(=O)[nH]c2=O)O[C@@H]1[C@@H](O[C@H]1OC(C(=O)NCCN)=C[C@H](O)[C@@H]1O)C(N)=O :: -1
CO[C@H]1[C@@H](O)[C@H](n2ccc(=O)[nH]c2=O)O[C@@H]1[C@@H](O[C@H]1OC(C(=O)Nc2cccc(F)c2)=C[C@H](O)[C@@H]1O)C(N)=O :: 1

Decide: MIC of "CCCCCCNC(=O)C1=C[C@H](O)[C@H](O)[C@@H](O[C@@H](C(N)=O)[C@H]2O[C@@H](n3ccc(=O)[nH]c3=O)[C@H](O)[C@@H]2OC)O1" strictly below 20 µg/mL?
1

Decide: MIC of "COc1ccccc1NC(=O)C1=C[C@H](O)[C@H](O)[C@@H](O[C@@H](C(N)=O)[C@H]2O[C@@H](n3ccc(=O)[nH]c3=O)[C@H](O)[C@@H]2OC)O1" strictly below 20 µg/mL?
-1
